test system: OVCAR3 cells; experiment: MTT proliferation assay, OVCAR3; format: cell-based; conditions: 5 days compound exposure, 1:3 serial dilution starting at 10 μM;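 further: compound given as an 8- or 10-point series, one day after plating, with exposure covering roughly 3-4 cell doublings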
*1 amine or outer side, *2 acyl side, *3 side chain or, on linkers, in order; H or OH if unused. Where a SMILES comes first, the peptide text is derived from it. Bridges are numbered along the chain shown (N, C = ends). [ ]: non-standard residue; d: D form. The star is where a group is joined. X110 = CC(C)C(=O)N1[C@H]2CC[C@@H]1C=C(c1ccc(Cl)cc1C[C@@H](C(=O)[*:2])N(C)[*:1])C2; X13 = CN([C@@H](Cc1cc(Cl)ccc1-c1cnn(CCS(C)(=O)=O)c1)C(=O)[*:2])[*:1]; NMehhhLys(Me) = CN([C@@H](CCCCCCCN(C)[*:3])C(=O)[*:2])[*:1]; NMe3Pal(2-OiPr,5-Cl) = CN[C@@H](Cc1cc(Cl)cnc1OC(C)C)C(=O)O; X117 = Cc1cc(-c2ccc(F)cc2C[C@@H](C(=O)[*:2])N(C)[*:1])cnn1; NMe(hhhLys) = CN([C@@H](CCCCCCCN[*:3])C(=O)[*:2])[*:1]; X17 = CN([C@@H](Cc1cc(Cl)cnc1N1CCOCC1)C(=O)[*:2])[*:1]; X132 = CN([C@@H](Cc1cc(Cl)cc2ccoc12)C(=O)[*:2])[*:1]; X41 = CN([C@@H](Cc1cc(Cl)cc2c1ccn2C)C(=O)[*:2])[*:1]; Cyclobutanecarbonyl(1-CF3) = O=C(C1(C(F)(F)F)CCC1)*; cBuCO(3,3-F2-1-CF3) = O=C(C1(C(F)(F)F)CC(F)(F)C1)*; Pro(trans-4-F) = O=C(O)[C@@H]1C[C@@H](F)CN1; Gly(cPr) = N[C@H](C(=O)O)C1CC1
Records here are stratified by GI50; strata: low: < 30 nM; middle: ≥ 30 nM and < 300 nM; high: ≥ 300 nM

MOLECULE	GROUP
CC(C)C[C@@H]1NC(=O)[C@@H](N(C)C(=O)[C@@H](NC(=O)[C@@H]2C[C@@H](F)CN2C(=O)C2(C(F)(F)F)CC(F)(F)C2)C2CC2)CCCCCCCN(C)C(=O)[C@H](Cc2cc(Cl)ccc2-c2cnn(CCS(C)(=O)=O)c2)N(C)C1=O [Example 257] ({cBuCO(3,3-F2-1-CF3)}-[Pro(trans-4-F)][Gly(cPr)][NMehhhLys(Me)]L[X13]; lactam 3-C)	low
CC(C)C[C@@H]1NC(=O)[C@@H](N(C)C(=O)[C@@H](NC(=O)[C@@H]2C[C@@H](F)CN2C(=O)C2(C(F)(F)F)CCC2)C2CC2)CCCCCCCNC(=O)[C@H](Cc2cc(Cl)cnc2OC(C)C)N(C)C1=O [Example 138] ({Cyclobutanecarbonyl(1-CF3)}-[Pro(trans-4-F)][Gly(cPr)][NMe(hhhLys)]L[NMe3Pal(2-OiPr,5-Cl)]; lactam 3-C)	middle
CC(C)C[C@@H]1NC(=O)[C@@H](N(C)C(=O)[C@@H](NC(=O)[C@@H]2C[C@@H](F)CN2C(=O)C2(C(F)(F)F)CCC2)C2CC2)CC=CCCCCNC(=O)[C@H](Cc2cc(Cl)cnc2OC2CC2)N(C)C1=O (single isomer, unassigned) [Example 107-P2]	high
CC(C)C[C@@H]1NC(=O)[C@@H](N(C)C(=O)[C@@H](NC(=O)[C@@H]2C[C@@H](F)CN2C(=O)C2(C(F)(F)F)CCC2)C2CC2)CC=CCCCCN(C)C(=O)[C@H](Cc2cc(Cl)ccc2Oc2ncccn2)N(C)C1=O [Example 157]	middle
CC(C)C[C@@H]1NC(=O)[C@@H](N(C)C(=O)[C@@H](NC(=O)[C@@H]2C[C@@H](F)CN2C(=O)C2(C(F)(F)F)CC(F)(F)C2)C2CC2)CCCCCCCN(C)C(=O)[C@H](Cc2cc(Cl)cnc2N2CCOCC2)N(C)C1=O [Example 320] ({cBuCO(3,3-F2-1-CF3)}-[Pro(trans-4-F)][Gly(cPr)][NMehhhLys(Me)]L[X17]; lactam 3-C)	low
CC(C)C[C@@H]1NC(=O)[C@@H](N(C)C(=O)[C@@H](NC(=O)[C@@H]2C[C@@H](F)CN2C(=O)C2(C(F)(F)F)CC(F)(F)C2)C2CC2)CCCCCCCNC(=O)[C@H](Cc2cc(Cl)ccc2C2=C[C@H]3CC[C@@H](C2)N3C(=O)C(C)C)N(C)C1=O [Example 313] ({cBuCO(3,3-F2-1-CF3)}-[Pro(trans-4-F)][Gly(cPr)][NMe(hhhLys)]L[X110]; lactam 3-C)	low
Cc1nnc(-c2ccc(Cl)cc2C[C@H]2C(=O)N(C)CCCCC=CC[C@H](N(C)C(=O)[C@@H](NC(=O)[C@@H]3C[C@@H](F)CN3C(=O)C3(C(F)(F)F)CC(F)(F)C3)C3CC3)C(=O)N[C@@H](CC(C)C)C(=O)N2C)o1 [Example 116]	middle
CC(C)C[C@@H]1NC(=O)[C@@H](N(C)C(=O)[C@@H](NC(=O)[C@@H]2C[C@@H](F)CN2C(=O)C2(C(F)(F)F)CC(F)(F)C2)C2CC2)CCCCCCCN(C)C(=O)[C@H](Cc2cc(Cl)cc3ccoc23)N(C)C1=O [Example 394] ({cBuCO(3,3-F2-1-CF3)}-[Pro(trans-4-F)][Gly(cPr)][NMehhhLys(Me)]L[X132]; lactam 3-C)	middle
CC(C)C[C@@H]1NC(=O)[C@@H](N(C)C(=O)[C@@H](NC(=O)[C@@H]2C[C@@H](F)CN2C(=O)C2(C(F)(F)F)CC(F)(F)C2)C2CC2)CCCCCCCN(C)C(=O)[C@H](Cc2cc(Cl)cc3c2ccn3C)N(C)C1=O [Example 393] ({cBuCO(3,3-F2-1-CF3)}-[Pro(trans-4-F)][Gly(cPr)][NMehhhLys(Me)]L[X41]; lactam 3-C)	high
Cc1cc(-c2ccc(F)cc2C[C@H]2C(=O)N(C)CCCCCCC[C@H](N(C)C(=O)[C@@H](NC(=O)[C@@H]3C[C@@H](F)CN3C(=O)C3(C(F)(F)F)CC(F)(F)C3)C3CC3)C(=O)N[C@@H](CC(C)C)C(=O)N2C)cnn1 [Example 293] ({cBuCO(3,3-F2-1-CF3)}-[Pro(trans-4-F)][Gly(cPr)][NMehhhLys(Me)]L[X117]; lactam 3-C)	middle
CC(C)C[C@@H]1NC(=O)[C@@H](N(C)C(=O)[C@@H](NC(=O)[C@@H]2C[C@@H](F)CN2C(=O)C2(C(F)(F)F)CC(F)(F)C2)C2CC2)CC=CCCCCNC(=O)[C@H](Cc2cc(Cl)ccc2C2=CCN(C)CC2)N(C)C1=O (single isomer, unassigned) [Example 56-P1]	high

Reference for the values: patent US20240408169A1
